B1: Osa-1-4 twister ribozyme (parent)
chain: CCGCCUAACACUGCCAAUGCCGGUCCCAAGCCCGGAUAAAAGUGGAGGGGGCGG

- Variants of: B1
- test.method.notes: self-cleavage, relative activity (ratio to wild type); higher = more cleavage; co-transcriptional
self-cleavage listing for selected variants.
property.name: self-cleavage

[[record]]
residue_change = "A41C U12G"
reading = 0.8

[[record]]
residue_change = "C33U G44A"
reading = 0.5

[[record]]
residue_change = "C27G G45U"
reading = 0.02

[[record]]
residue_change = "C9A G51A"
reading = 0.13

[[record]]
residue_change = "A28G G34A"
reading = 0.21

[[record]]
residue_change = "G23U U24A"
reading = 0.04

[[record]]
residue_change = "C26G G42U"
reading = 0.02

[[record]]
residue_change = "C52A U43G"
reading = 0.37

[[record]]
residue_change = "G13A G49U"
reading = 0.02

[[record]]
residue_change = "A28U G34U"
reading = 0.28

[[record]]
residue_change = "C33G"
reading = 0.06

[[record]]
residue_change = "C32U G22A"
reading = 0.09

[[record]]
residue_change = "G34A U18A"
reading = 0.73

[[record]]
residue_change = "A39U C32G"
reading = 0.1

[[record]]
residue_change = "A7G G19A"
reading = 0.15

[[record]]
residue_change = "G42A G53A"
reading = 0.58

[[record]]
residue_change = "G48U U12A"
reading = 0.07

[[record]]
residue_change = "C32G G50A"
reading = 0.1

[[record]]
residue_change = "A17C G49U"
reading = 0.05

[[record]]
residue_change = "U18C U43G"
reading = 0.3

[[record]]
residue_change = "G23A G44A"
reading = 0.15

[[record]]
residue_change = "A29U C31G"
reading = 0.03

